- Test system: MV4-11 cell Bab/c nude mouse tumor model
- Test Summary: In vivo tumor growth inhibition experiment
- Conditions: Dose 2.5 mg/kg, Day 15
- Protocol: Xenotransplantation in immunodeficient mice is an effective model for testing in vivo antitumor activity of compounds in animals. Bab/c immunodeficient mice are one of the most commonly used tumor cell xenografts. […] In the control group, 3 to 6 nude mice in each group were given the same volume (0.1 ml/10 g body weight) of solvent PTP solution, and the tumors were measured 3 to 4 times per week. […] The tumor volume was calculated as V=½a×b^2, where a is the length and b is the width. […]

Compound	Tumor Inhibition Rate (%)
CC(C)(C)c1cc(NC(=O)Nc2ccc(-n3cnc4cc(OCCN5CCOCC5)ccc43)cc2)[nH]n1 [Compound 89]	84.7
COc1ccc2c(c1)ncn2-c1ccc(NC(=O)Nc2cc(C(C)(C)C)n[nH]2)cc1 [Compound 71]	77.9
COCCOc1ccc2c(c1)ncn2-c1ccc(NC(=O)Nc2cc(C(C)(C)C)n[nH]2)cc1 [Compound 77]	100
CC(C)(C)c1cc(NC(=O)Nc2ccc(-n3cnc4cc(OCCN5CCOCC5)ccc43)cc2)no1 [Compound 16]	100
CC(C)(C)c1cc(NC(=O)Nc2ccc(-n3cnc4ccccc43)cc2)[nH]n1 [Compound 68]	17.8

====

- Test Summary: In vivo pharmacokinetics in rats
- Design: species or system rat
- Conditions: male, SD, rat, plasma, iv, 5 mg/kg, administered intravenously, 5 mg/kg, read-out: Cmax
Where a name gives a salt, the structure may show the parent alone.
Property Name: Cmax

Compound	Result
COCCOc1ccc2c(c1)ncn2-c1ccc(NC(=O)Nc2cc(C(C)(C)C)n[nH]2)cc1 [Compound 77 Mesylate]	18700 ng/mL

====

- Test Summary: In vivo pharmacokinetics in rats
- Parameters: species or system rat
- Conditions: male, SD, rat, plasma, po, 10 mg/kg, orally, 10 mg/kg, Mean, read-out: t½ (converted)
Structures can show the parent of a compound that is named as a salt.
Property Name: half-life (h)

Molecule	Property Name	Recorded Number
COCCOc1ccc2c(c1)ncn2-c1ccc(NC(=O)Nc2cc(C(C)(C)C)n[nH]2)cc1 [Compound 77 Mesylate]	half-life	3.86

====

- Test Summary: In vivo pharmacokinetics in rats
- Design: species or system rat
- Conditions: male, rat, plasma; SD rats, oral 10 mg/kg versus intravenous 5 mg/kg
Structures can show the parent of a compound that is named as a salt.

Molecule	bioavailability (%)
COCCOc1ccc2c(c1)ncn2-c1ccc(NC(=O)Nc2cc(C(C)(C)C)n[nH]2)cc1 [Compound 77 Mesylate]	23.5

====

- Test Summary: In vivo pharmacokinetics in rats
- Design: species or system rat
- Conditions: male, SD, rat, plasma, iv, 5 mg/kg, intravenously, 5 mg/kg, individual animals 101-103, read-out: Vz
- Description: The pharmacokinetic experiments in rats were performed using compound 77 of the present invention as a representative example. […] The pharmacokinetic parameters (AUC(0-t), AUC(0-∞), T1/2, MRT(0-∞), Cmax, Tmax and F) were calculated using WinNonlin Professional v5.2 (Pharsight USA). In addition, the bioavailability (F) was calculated by the following formula.
Where a name gives a salt, the structure may show the parent alone.
Property Name: Vd (L/kg)

Compound	Property Name	Value Unit	Recorded Number
COCCOc1ccc2c(c1)ncn2-c1ccc(NC(=O)Nc2cc(C(C)(C)C)n[nH]2)cc1 [Compound 77 Mesylate]	Vd	L/kg	1.91

src = patent US10647680B2
